test system: HL-60; assay: Proliferation study, CellTiterGlo, 4 days (Example 102), HL-60; assay type: cell-based; conditions: HL-60, 4 days treatment, CellTiterGlo; read-out: HL-60 IC50
reportedMetric: pIC50
pIC50 here is simply -log10 of the concentration when that concentration is written in mol/L.

### Prompt Given Cc1c(CN2CCC(Nc3ncnc4sc(CC(F)(F)F)cc34)CC2)ccc2c1cc(C#N)n2Cc1cn[nH]c1 [MI-503, reference compound] , respond with its pIC50.
### Response 6.38

---

pIC50 values for the molecules below.
tested on: OCI-AML-3; test: Long term proliferation, Cell Titer-Glo (Table 3B), OCI-AML-3; format: cell-based; details: Homo sapiens, 96 h; OCI-AML-3, Cell Titer-Glo, Day 4; read-out: Day 4 IC50
pIC50 here is simply -log10 of the concentration when that concentration is written in mol/L.

O=C(Nc1ccc(-c2cc3c(N4CCOCC4)ncnc3[nH]2)cc1)Nc1cc(-c2cccnc2)n[nH]1 : 6.06

Proceeding to the next molecule to report its pIC50.
### Prompt Given "O=C(Nc1ccc(-c2cc3c(N4CCOCC4)ncnc3[nH]2)cc1)Nc1cc(-c2ccncc2)no1" , respond with its pIC50.
### Response 6.23
